Tested on: dsDNA
assay-procedure: Stabilization of human duplex DNA assessed as change in temperature at 1 uM by FRET assay
Assay type: nucleic-acid assay
measured-parameter: ΔTm (°C)

CCCOCCNCC(=O)Nc1ccc(-c2cn(Cc3cc(Cn4cc(-c5ccc(NC(=O)CNCCOCCC)cc5)nn4)cc(Cn4cc(-c5ccc(NC(=O)CNCCOCCC)cc5)nn4)c3)nn2)cc1    0
CCCCCNCCC(=O)Nc1ccc(-c2cn(Cc3cc(Cn4cc(-c5ccc(NC(=O)CCNCCCCC)cc5)nn4)cc(Cn4cc(-c5ccc(NC(=O)CCNCCCCC)cc5)nn4)c3)nn2)cc1    0
CCCCCNCCCC(=O)Nc1ccc(-c2cn(Cc3cc(Cn4cc(-c5ccc(NC(=O)CCCNCCCCC)cc5)nn4)cc(Cn4cc(-c5ccc(NC(=O)CCCNCCCCC)cc5)nn4)c3)nn2)cc1    0
